Numbers sourced from patent US7495027B2.

Tested on: enterococci
experiment: Minimum inhibitory concentration, microdilution broth method, enterococci
Assay type: cell-based
experimentalSetup: Enterococcus faecalis, E. faecalis GC 4555; Mueller-Hinton broth, 18-22 hours at 35° C.; read-out: MIC E. faecalis GC 4555
Below, each entry is listed with its recorded MIC.
Give a bare numeral; the unit µg/mL is implied.

O=C1O/C(=C\c2ccc(N3CCOCC3)c3ccccc23)C(O)=C1c1cccc(Cl)c1	32
O=C1O/C(=C\c2ccc3ccccc3c2)C(O)=C1c1ccc(Cl)cc1	32
O=C1O/C(=C\c2cccc(C(F)(F)F)c2)C(O)=C1c1ccc(-c2ccccc2)cc1	4
O=C1O/C(=C\c2ccc(-c3ccccc3)cc2)C(O)=C1c1cc(Cl)cc(Cl)c1	2
COc1cc(/C=C2\OC(=O)C(c3cc(Cl)cc(Cl)c3)=C2O)ccc1-c1ccccc1C	4

In: Sample `CC(=O)c1ccccc1-c1ccc(/C=C2\OC(=O)C(c3cc(Cl)cc(Cl)c3)=C2O)cc1C` — what was its MIC?
Out: 2

In: Record request: MIC value, item `Cc1cc(/C=C2\OC(=O)C(c3cccc(Cl)c3)=C2O)ccc1-c1ccccc1C(F)(F)F`
Out: 4

====

systemTested: S. aureus UDP-N-acetylglucosamine enolpyruvoyl transferase, MurA (Staphylococcus aureus, UniProt P84058)
Sequence (P84058 whole entry): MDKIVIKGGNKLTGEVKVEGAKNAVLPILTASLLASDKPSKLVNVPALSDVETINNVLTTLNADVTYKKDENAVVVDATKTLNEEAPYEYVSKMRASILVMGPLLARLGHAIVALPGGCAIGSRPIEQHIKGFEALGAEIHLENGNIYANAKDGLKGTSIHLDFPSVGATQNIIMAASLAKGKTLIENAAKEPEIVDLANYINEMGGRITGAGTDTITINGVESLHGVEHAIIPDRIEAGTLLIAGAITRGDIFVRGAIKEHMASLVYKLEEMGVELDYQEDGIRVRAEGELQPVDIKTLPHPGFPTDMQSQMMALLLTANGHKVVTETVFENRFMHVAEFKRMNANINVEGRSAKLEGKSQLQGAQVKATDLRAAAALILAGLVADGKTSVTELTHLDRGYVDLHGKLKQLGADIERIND
Item-by-item account of log10 IC50
// stored as log10 of IC50 expressed in µM

O=C1O/C(=C\c2ccc(Cl)cc2)C(O)=C1c1ccc(-c2ccccc2)c(F)c1 [Example 138]	1.25

In: Which log10 IC50 value is on record for O=C1O/C(=C\c2cccc(-c3cc(Cl)cc(Cl)c3)c2)C(O)=C1c1cc(Cl)cc(Cl)c1 [Example 136] ?
Out: 0.32

In: Give the measured log10 IC50 of COc1ccccc1-c1ccc(/C=C2\OC(=O)C(c3cc(Cl)cc(Cl)c3)=C2O)cc1OC [Example 19] .
Out: 1.56

In: Which value of log10 IC50 has been reported for Cc1cc(/C=C2\OC(=O)C(c3cccc(Cl)c3)=C2O)ccc1-c1ccccc1Cl [Example 30] in the records?
Out: 0.85

In: Name the reported log10 IC50 value associated with the compound Cc1ccccc1-c1ccc(/C=C2\OC(=O)C(c3cccc(Cl)c3)=C2O)cc1C [Example 28]
Out: 1.39

In: # query: log10 IC50 of entry Cc1ccccc1-c1ccc(/C=C2\OC(=O)C(c3cc(Cl)cc(Cl)c3)=C2O)cc1C [Example 29]
Out: 0.66

In: I have this compound here, Cc1cc(/C=C2\OC(=O)C(c3cc(Cl)cc(Cl)c3)=C2O)ccc1-c1ccccc1C(F)(F)F [Example 27] , and I need its recorded log10 IC50.
Out: 0.61

In: Find the recorded log10 IC50 belonging to O=C1O/C(=C\c2ccccc2-c2ccc(Cl)cc2)C(O)=C1c1ccc(Cl)cc1 [Example 137] and report it.
Out: 1.50

In: Given the compound CN(C)c1ccc(/C=C2\OC(=O)C(c3cc(Cl)cc(Cl)c3)=C2O)c2ccccc12 [Example 79] , what is its reported log10 IC50?
Out: 1.52

In: Which log10 IC50 value is on record for COc1cc(/C=C2\OC(=O)C(c3cccc(Cl)c3)=C2O)ccc1-c1ccccc1Cl [Example 18] ?
Out: 1.14

In: Name the recorded log10 IC50 for COc1ccc(/C=C2\OC(=O)C(c3cc(Cl)cc(Cl)c3)=C2O)c2ccccc12 [Example 36] .
Out: 1.16

In: Returns the measured log10 IC50 for the input compound. Input: Cc1cc(/C=C2\OC(=O)C(c3cccc(Cl)c3)=C2O)ccc1-c1ccccc1C(F)(F)F [Example 26]
Out: 0.94
